# target: human CB-1 cannabinoid receptor (Homo sapiens, UniProt P21554)
# Sequence (P21554 whole entry): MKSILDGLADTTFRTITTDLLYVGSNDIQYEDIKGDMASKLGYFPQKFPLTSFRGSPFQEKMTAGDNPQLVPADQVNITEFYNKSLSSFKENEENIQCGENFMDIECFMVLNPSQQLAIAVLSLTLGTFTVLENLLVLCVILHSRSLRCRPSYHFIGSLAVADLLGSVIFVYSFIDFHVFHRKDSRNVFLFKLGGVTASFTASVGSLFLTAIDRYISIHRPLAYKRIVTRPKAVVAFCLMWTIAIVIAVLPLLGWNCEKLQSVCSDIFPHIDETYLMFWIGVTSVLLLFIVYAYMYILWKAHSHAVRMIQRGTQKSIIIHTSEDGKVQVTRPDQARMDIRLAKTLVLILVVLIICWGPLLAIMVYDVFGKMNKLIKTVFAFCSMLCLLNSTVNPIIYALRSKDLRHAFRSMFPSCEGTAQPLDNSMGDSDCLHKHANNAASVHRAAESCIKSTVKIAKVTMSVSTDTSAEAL
Please respond with met when measured Ki is strictly beneath 20 µM, and with not met in all other cases.

Cc1cc(-c2c(-c3ccccc3)nc(N)n3c(=O)n(Cc4ccc(F)cc4)nc23)cc(C)n1    met
Cc1cc(-c2c(-c3ccccc3)nc(N)n3c(=O)n(CC(C)C)nc23)cc(C)[n+]1[O-]    not met
COc1cc(-c2c(-c3ccccc3)nc(N)n3c(=O)n(CCC(F)(F)F)nc23)cc(CO)n1    not met
Cc1cc(-c2c(-c3ccc(F)cn3)nc(N)n3c(=O)n(CCC(F)(F)F)nc23)cc(C)n1    not met
COc1ccc(-c2nc(N)n3c(=O)n(CCC(F)(F)F)nc3c2-c2cc(C)nc(C)c2)cc1    met

Qu. API: query returns whether the compound falls strictly under 20 µM in Ki. Query: `Cc1cc(-c2c(-c3ccccc3)nc(N)n3c(=O)n(Cc4ccc(F)cn4)nc23)cc(CO)n1`
Ans. not met

Qu. API: query returns whether the compound falls strictly under 20 µM in Ki. Query: `Cc1cc(-c2c(-c3ccccc3)nc(N)n3c(=O)n(C[C@@H]4COCCN4Cc4ccccc4)nc23)cc(C)n1`
Ans. met

Qu. API: query returns whether the compound falls strictly under 20 µM in Ki. Query: Cc1cc(-c2c(-c3ccccc3)nc(N)n3c(=O)n(C4CCCN(C(=O)OC(C)(C)C)C4)nc23)cc(C)n1 (centres unmarked)
Ans. met

Qu. API: query returns whether the compound falls strictly under 20 µM in Ki. Query: `Cc1cc(-c2c(-c3ccccc3)nc(N)n3c(=O)n(CCC(F)(F)F)nc23)cc(C)n1`
Ans. not met

Qu. API: query returns whether the compound falls strictly under 20 µM in Ki. Query: `Cc1cc(-c2c(-c3ccccc3)nc(N)n3c(=O)n(CCOC(F)(F)F)nc23)cc(C)n1`
Ans. not met
